# Assay comment: Solubility of compound in <1 % DMSO
# Type: physicochemical

[
  {
    "Structure as smiles": "O=C(NCc1ccco1)C1CCN(Cc2ccccc2)CC1",
    "solubility": "Soluble"
  },
  {
    "Structure as smiles": "Cc1c(NC(=O)C2CCN(Cc3ccccc3)CC2)c(=O)n(-c2ccccc2)n1C",
    "solubility": "Soluble"
  },
  {
    "Structure as smiles": "O=C(NCc1cccnc1)C1CCN(Cc2ccccc2)CC1",
    "solubility": "Soluble"
  }
]

----------
Below are molecules with their pIC50 as measured on Acetylcholinesterase (Electrophorus electricus).
Sequence (O42275 whole entry): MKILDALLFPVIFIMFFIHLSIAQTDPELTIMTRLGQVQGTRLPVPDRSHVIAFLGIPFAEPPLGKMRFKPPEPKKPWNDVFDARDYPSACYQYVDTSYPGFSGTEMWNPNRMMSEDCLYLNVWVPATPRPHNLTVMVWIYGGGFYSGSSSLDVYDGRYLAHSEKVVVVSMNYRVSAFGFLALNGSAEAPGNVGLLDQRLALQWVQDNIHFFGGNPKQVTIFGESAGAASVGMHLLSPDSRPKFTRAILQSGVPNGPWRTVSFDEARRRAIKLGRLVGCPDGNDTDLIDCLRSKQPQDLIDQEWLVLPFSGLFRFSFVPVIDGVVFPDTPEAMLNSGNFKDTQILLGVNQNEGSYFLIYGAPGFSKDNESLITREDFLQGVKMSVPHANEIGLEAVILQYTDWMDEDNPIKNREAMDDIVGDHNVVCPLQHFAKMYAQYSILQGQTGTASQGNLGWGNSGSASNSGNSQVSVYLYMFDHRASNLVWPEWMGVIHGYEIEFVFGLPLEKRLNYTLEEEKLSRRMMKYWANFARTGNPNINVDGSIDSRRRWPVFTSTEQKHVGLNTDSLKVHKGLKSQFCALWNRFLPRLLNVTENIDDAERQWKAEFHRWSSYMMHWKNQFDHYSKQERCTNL
pIC50: −log10 of the molar value.

[
  {
    "Molecule": "COc1ccccc1CNC(=O)C1CCN(Cc2ccccc2)CC1",
    "System": "Acetylcholinesterase (Electrophorus electricus)",
    "Qualifier operator": "=",
    "pIC50": 4.35
  },
  {
    "Molecule": "O=C(NC1CCCc2ccccc21)C1CCN(Cc2ccccc2)CC1 (centres undefined)",
    "System": "Acetylcholinesterase (Electrophorus electricus)",
    "Qualifier operator": "<",
    "pIC50": 4.00
  },
  {
    "Molecule": "O=C(NCCNc1cccc2ccccc12)C1CCN(Cc2ccccc2)CC1",
    "System": "Acetylcholinesterase (Electrophorus electricus)",
    "Qualifier operator": "=",
    "pIC50": 4.85
  },
  {
    "Molecule": "O=C(NCCc1c[nH]cn1)C1CCN(Cc2ccccc2)CC1",
    "System": "Acetylcholinesterase (Electrophorus electricus)",
    "Qualifier operator": "<",
    "pIC50": 4.00
  },
  {
    "Molecule": "O=C(NCc1ccccn1)C1CCN(Cc2ccccc2)CC1",
    "System": "Acetylcholinesterase (Electrophorus electricus)",
    "Qualifier operator": "=",
    "pIC50": 4.51
  },
  {
    "Molecule": "COc1cc(CCNC(=O)C2CCN(Cc3ccccc3)CC2)cc(OC)c1OC",
    "System": "Acetylcholinesterase (Electrophorus electricus)",
    "Qualifier operator": "<",
    "pIC50": 4.00
  },
  {
    "Molecule": "Cc1c(NC(=O)C2CCN(Cc3ccccc3)CC2)c(=O)n(-c2ccccc2)n1C",
    "System": "Acetylcholinesterase (Electrophorus electricus)",
    "Qualifier operator": "=",
    "pIC50": 5.23
  },
  {
    "Molecule": "O=C(NCCc1c[nH]c2ccccc12)C1CCN(Cc2ccccc2)CC1",
    "System": "Acetylcholinesterase (Electrophorus electricus)",
    "Qualifier operator": "=",
    "pIC50": 4.59
  },
  {
    "Molecule": "O=C(NCc1ccco1)C1CCN(Cc2ccccc2)CC1",
    "System": "Acetylcholinesterase (Electrophorus electricus)",
    "Qualifier operator": "<",
    "pIC50": 4.00
  },
  {
    "Molecule": "O=C(NCCN1CCOCC1)C1CCN(Cc2ccccc2)CC1",
    "System": "Acetylcholinesterase (Electrophorus electricus)",
    "Qualifier operator": "<",
    "pIC50": 4.00
  },
  {
    "Molecule": "O=C(NCCN1CCCCC1)C1CCN(Cc2ccccc2)CC1",
    "System": "Acetylcholinesterase (Electrophorus electricus)",
    "Qualifier operator": "=",
    "pIC50": 4.09
  },
  {
    "Molecule": "O=C(NCc1cccnc1)C1CCN(Cc2ccccc2)CC1",
    "System": "Acetylcholinesterase (Electrophorus electricus)",
    "Qualifier operator": "=",
    "pIC50": 4.23
  },
  {
    "Molecule": "O=C(Nc1nccs1)C1CCN(Cc2ccccc2)CC1",
    "System": "Acetylcholinesterase (Electrophorus electricus)",
    "Qualifier operator": "=",
    "pIC50": 4.29
  },
  {
    "Molecule": "O=C(NCc1ccncc1)C1CCN(Cc2ccccc2)CC1",
    "System": "Acetylcholinesterase (Electrophorus electricus)",
    "Qualifier operator": "=",
    "pIC50": 4.24
  }
]

FYI, the data here is from ChEMBL document CHEMBL4351023.
